Provenance of the data: paper PMC11241340

- target under test: α2B-AR (Homo sapiens, UniProt P18089)
- assay details: GloSensor cAMP assay in HEK293 cells transfected with α2B-AR
- Format: cell-based
- Design: Flag; expressed in transfected cells; host or cells: HEK293
- test conditions: HEK293 α2B-AR; DMED 10^−10–10^−7M, P300–2342 10^−10–10^−5M
assay metric: effect on cAMP accumulation (agonist activity) in α2B-AR cells

INSERT INTO assay_data (compound, target_under_test, reading) VALUES
  ('CCN(CC)CCNC(=O)c1ccc2c(c1)n(Cc1ccccc1)c(=O)c1ccnn12 [P300–1500]', 'α2B-AR (Homo sapiens, UniProt P18089)', 'no activation'),
  ('O=C(NCCN1CCCCC1)c1ccc2c(c1)n(Cc1cccc(F)c1)c(=O)c1ccnn12 [P300–2344]', 'α2B-AR (Homo sapiens, UniProt P18089)', 'no activation'),
  ('CN(C)CCNC(=O)c1ccc2c(c1)n(Cc1cccc(F)c1)c(=O)c1ccnn12 [T226–1970]', 'α2B-AR (Homo sapiens, UniProt P18089)', 'no activation');

* * *

pIC50: −log10 of the molar value.
α2A-AR (Homo sapiens): recorded pIC50 for assorted molecules
assay metric: pIC50

INSERT INTO results (molecule, assay_metric, reading) VALUES
  ('O=C(NCCN1CCCCC1)c1ccc2c(c1)n(Cc1cccc(F)c1)c(=O)c1ccnn12 [P300–2344]', 'pIC50', 4.95),
  ('CCN(CC)CCNC(=O)c1ccc2c(c1)n(Cc1ccccc1)c(=O)c1ccnn12 [P300–1500]', 'pIC50', 5.02);

* * *

- target under test: α2B-AR (Homo sapiens)
- Sequence (P18089 1-450): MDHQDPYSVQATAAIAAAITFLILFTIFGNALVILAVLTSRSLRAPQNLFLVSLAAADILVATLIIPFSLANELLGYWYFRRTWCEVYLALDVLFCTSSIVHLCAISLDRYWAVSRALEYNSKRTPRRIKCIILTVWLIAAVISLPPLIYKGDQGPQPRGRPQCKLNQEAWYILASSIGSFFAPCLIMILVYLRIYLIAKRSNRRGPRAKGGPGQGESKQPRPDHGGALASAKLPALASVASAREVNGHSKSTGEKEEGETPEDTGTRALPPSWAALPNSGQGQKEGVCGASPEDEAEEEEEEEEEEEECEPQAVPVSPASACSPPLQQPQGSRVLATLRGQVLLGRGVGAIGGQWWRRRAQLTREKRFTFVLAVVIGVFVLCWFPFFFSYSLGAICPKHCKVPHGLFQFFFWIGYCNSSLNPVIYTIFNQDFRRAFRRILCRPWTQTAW
- assay details: GloSensor cAMP assay in HEK293 cells transfected with α2B-AR
- Format: cell-based
- Set-up: Flag; expressed in transfected cells; host or cells: HEK293
- test conditions: α2B-AR-HEK293 cells; 10 μM
assay metric: effect of pretreatment on cAMP accumulation induced by DMED (antagonist activity)

INSERT INTO assay_data (compound, reading) VALUES
  ('O=C(NCCN1CCCCC1)c1ccc2c(c1)n(Cc1cccc(F)c1)c(=O)c1ccnn12 [P300–2344]', 'no effects'),
  ('CCN(CC)CCNC(=O)c1ccc2c(c1)n(Cc1ccccc1)c(=O)c1ccnn12 [P300–1500]', 'no effects'),
  ('CCN(CC)CCNC(=O)c1ccc2c(c1)n(Cc1cccc(F)c1)c(=O)c1ccnn12 [P300–2342]', 'slightly decreased'),
  ('CN(C)CCNC(=O)c1ccc2c(c1)n(Cc1cccc(F)c1)c(=O)c1ccnn12 [T226–1970]', 'slightly decreased');

* * *

Documented maximum binding inhibition of [3H] Rauwolscine, α2A-AR across a set of compounds
- target under test: α2A-AR (Homo sapiens, UniProt P08913)
- Sequence (P08913 1-465): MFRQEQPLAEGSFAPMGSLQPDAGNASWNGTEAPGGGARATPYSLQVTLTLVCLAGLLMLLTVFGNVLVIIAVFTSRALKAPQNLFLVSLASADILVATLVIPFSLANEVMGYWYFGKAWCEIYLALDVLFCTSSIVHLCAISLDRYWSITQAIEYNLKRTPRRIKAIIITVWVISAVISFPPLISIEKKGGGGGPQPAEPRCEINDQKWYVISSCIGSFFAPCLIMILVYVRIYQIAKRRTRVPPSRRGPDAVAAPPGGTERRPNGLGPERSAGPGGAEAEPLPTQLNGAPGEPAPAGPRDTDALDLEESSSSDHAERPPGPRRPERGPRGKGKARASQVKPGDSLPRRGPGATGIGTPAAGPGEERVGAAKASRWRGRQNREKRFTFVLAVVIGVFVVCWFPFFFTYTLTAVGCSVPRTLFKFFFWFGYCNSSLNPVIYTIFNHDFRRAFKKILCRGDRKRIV
- assay details: Competitive inhibition of [3H] Rauwolscine binding, CHO-K1 membranes
assay metric: maximum binding inhibition of [3H] Rauwolscine, α2A-AR (%)

INSERT INTO results (smiles_record, reading) VALUES
  ('CCN(CC)CCNC(=O)c1ccc2c(c1)n(Cc1ccccc1)c(=O)c1ccnn12', 90),
  ('CN(C)CCNC(=O)c1ccc2c(c1)n(Cc1cccc(F)c1)c(=O)c1ccnn12', 85),
  ('O=C(NCCN1CCCCC1)c1ccc2c(c1)n(Cc1cccc(F)c1)c(=O)c1ccnn12', 91),
  ('CCN(CC)CCNC(=O)c1ccc2c(c1)n(Cc1cccc(F)c1)c(=O)c1ccnn12', 83);

* * *

- target under test: α2B-AR (Homo sapiens, UniProt P18089)
- assay details: Competitive inhibition of [3H] Rauwolscine binding, CHO-K1 membranes
assay metric: maximum binding inhibition of [3H] Rauwolscine, α2B-AR (%)

INSERT INTO results (smiles_record, readout_unit, reading) VALUES
  ('CCN(CC)CCNC(=O)c1ccc2c(c1)n(Cc1ccccc1)c(=O)c1ccnn12', '%', 85),
  ('CN(C)CCNC(=O)c1ccc2c(c1)n(Cc1cccc(F)c1)c(=O)c1ccnn12', '%', 94),
  ('O=C(NCCN1CCCCC1)c1ccc2c(c1)n(Cc1cccc(F)c1)c(=O)c1ccnn12', '%', 86),
  ('CCN(CC)CCNC(=O)c1ccc2c(c1)n(Cc1cccc(F)c1)c(=O)c1ccnn12', '%', 71);

* * *

- target under test: α2A-AR (Homo sapiens, UniProt P08913)
- assay details: GloSensor cAMP assay in HEK293 cells transfected with α2A-AR
- Type: cell-based
- Parameters: Flag; expressed in transfected cells; host or cells: HEK293
- test conditions: α2A-AR HEK293; FSK 10^−5M; DMED 10^−13–10^−9M, P300–2342 10^−10–10^−5M
- Procedure: According to the GloSensor cAMP biosensor (Promega, Shanghai, China) manufacturer protocols, HEK293 cells were co-transfected with the pGloSensor-22F cAMP plasmid (Promega, E1171) and pCMV6 Entry-Flag-α2A-AR. After 24 h, the cells were seeded in white 96-well plates. […] Before drug stimulation, an initial measurement of the baseline signal was detected. […] The signal was read using a Victor 2D Instrument (PerkinElmer) at 675 nm. […]
assay metric: decrease of cAMP accumulation stimulated by forskolin (Gαi/o coupling)

INSERT INTO assay_data (smiles_record, target_under_test, reading) VALUES
  ('O=C(NCCN1CCCCC1)c1ccc2c(c1)n(Cc1cccc(F)c1)c(=O)c1ccnn12', 'α2A-AR (Homo sapiens, UniProt P08913)', 'decreased'),
  ('CCN(CC)CCNC(=O)c1ccc2c(c1)n(Cc1ccccc1)c(=O)c1ccnn12', 'α2A-AR (Homo sapiens, UniProt P08913)', 'decreased'),
  ('CN(C)CCNC(=O)c1ccc2c(c1)n(Cc1cccc(F)c1)c(=O)c1ccnn12', 'α2A-AR (Homo sapiens, UniProt P08913)', 'decreased');

* * *

- target under test: α2B-AR (Homo sapiens, UniProt P18089)
- Sequence (P18089 1-450): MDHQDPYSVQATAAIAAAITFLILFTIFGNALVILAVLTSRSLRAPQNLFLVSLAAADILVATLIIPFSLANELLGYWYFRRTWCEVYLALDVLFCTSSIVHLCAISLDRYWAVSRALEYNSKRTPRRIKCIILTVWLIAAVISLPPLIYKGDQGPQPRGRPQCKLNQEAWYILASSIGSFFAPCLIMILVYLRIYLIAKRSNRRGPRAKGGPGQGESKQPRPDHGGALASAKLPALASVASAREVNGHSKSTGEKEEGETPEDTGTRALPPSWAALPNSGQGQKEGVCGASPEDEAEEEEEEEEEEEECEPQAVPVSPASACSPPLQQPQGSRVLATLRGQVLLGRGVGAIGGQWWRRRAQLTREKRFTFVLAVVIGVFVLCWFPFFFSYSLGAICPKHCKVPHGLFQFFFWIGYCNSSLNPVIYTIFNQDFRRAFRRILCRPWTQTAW
pIC50: −log10 of the molar value.
assay metric: pIC50

INSERT INTO results (molecule, reading) VALUES
  ('Cc1cccc([C@H](C)c2cnc[nH]2)c1C [DMED, Dexmedetomidine, reference compound]', 7.83),
  ('O=C(NCCN1CCCCC1)c1ccc2c(c1)n(Cc1cccc(F)c1)c(=O)c1ccnn12', 4.80),
  ('CN(C)CCNC(=O)c1ccc2c(c1)n(Cc1cccc(F)c1)c(=O)c1ccnn12', 5.07);
